Some molecules, each annotated with its measured IC50.
- Measured On: Indoleamine 2,3-dioxygenase 1 (Homo sapiens)
- Assay Text: Inhibition of human IDO1 incubated for 60 mins in presence of L-tryptophan by HPLC analysis
Test Readout: IC50 (µM)

[
  {
    "Smiles Str": "CCOc1ccc2[nH]cc(Sc3ccccc3OC)c2c1",
    "Measured On": "Indoleamine 2,3-dioxygenase 1 (Homo sapiens)",
    "Scale Unit": "µM",
    "Relation": ">",
    "Numeric Result": 200
  },
  {
    "Smiles Str": "Clc1ccc2[nH]cc(Sc3ccccc3)c2c1",
    "Measured On": "Indoleamine 2,3-dioxygenase 1 (Homo sapiens)",
    "Scale Unit": "µM",
    "Relation": ">",
    "Numeric Result": 200
  },
  {
    "Smiles Str": "Cc1cccc(Sc2c[nH]c3ccc(Cl)cc23)c1",
    "Measured On": "Indoleamine 2,3-dioxygenase 1 (Homo sapiens)",
    "Scale Unit": "µM",
    "Relation": "=",
    "Numeric Result": 100
  },
  {
    "Smiles Str": "COc1cc(Sc2c[nH]c3ccc(Cl)cc23)cc(OC)c1OC",
    "Measured On": "Indoleamine 2,3-dioxygenase 1 (Homo sapiens)",
    "Scale Unit": "µM",
    "Relation": "=",
    "Numeric Result": 40
  },
  {
    "Smiles Str": "COc1ccccc1Sc1c[nH]c2ccc(F)cc12",
    "Measured On": "Indoleamine 2,3-dioxygenase 1 (Homo sapiens)",
    "Scale Unit": "µM",
    "Relation": "=",
    "Numeric Result": 32
  },
  {
    "Smiles Str": "COc1ccccc1Sc1c[nH]c2ccc(I)cc12",
    "Measured On": "Indoleamine 2,3-dioxygenase 1 (Homo sapiens)",
    "Scale Unit": "µM",
    "Relation": "=",
    "Numeric Result": 45
  },
  {
    "Smiles Str": "COC(=O)c1[nH]c2ccc(Cl)cc2c1Sc1ccccc1OC",
    "Measured On": "Indoleamine 2,3-dioxygenase 1 (Homo sapiens)",
    "Scale Unit": "µM",
    "Relation": ">",
    "Numeric Result": 200
  },
  {
    "Smiles Str": "COc1cc(OC)cc(Sc2c[nH]c3cc(Cl)ccc23)c1",
    "Measured On": "Indoleamine 2,3-dioxygenase 1 (Homo sapiens)",
    "Scale Unit": "µM",
    "Relation": "=",
    "Numeric Result": 15
  },
  {
    "Smiles Str": "COc1cc(OC)cc(Sc2c[nH]c3c(Cl)c(Cl)ccc23)c1",
    "Measured On": "Indoleamine 2,3-dioxygenase 1 (Homo sapiens)",
    "Scale Unit": "µM",
    "Relation": "=",
    "Numeric Result": 90
  },
  {
    "Smiles Str": "Cc1ccccc1Sc1c[nH]c2ccc(Cl)cc12",
    "Measured On": "Indoleamine 2,3-dioxygenase 1 (Homo sapiens)",
    "Scale Unit": "µM",
    "Relation": "=",
    "Numeric Result": 21
  },
  {
    "Smiles Str": "COc1ccc(Sc2c[nH]c3ccc(Cl)cc23)c(OC)c1",
    "Measured On": "Indoleamine 2,3-dioxygenase 1 (Homo sapiens)",
    "Scale Unit": "µM",
    "Relation": ">",
    "Numeric Result": 50
  },
  {
    "Smiles Str": "COc1ccccc1Sc1c[nH]c2ccc(Cl)cc12",
    "Measured On": "Indoleamine 2,3-dioxygenase 1 (Homo sapiens)",
    "Scale Unit": "µM",
    "Relation": "=",
    "Numeric Result": 17.5
  }
]

###

- Measured On: Indoleamine 2,3-dioxygenase 1 (Homo sapiens, UniProt P14902)
- Sequence (P14902 whole entry): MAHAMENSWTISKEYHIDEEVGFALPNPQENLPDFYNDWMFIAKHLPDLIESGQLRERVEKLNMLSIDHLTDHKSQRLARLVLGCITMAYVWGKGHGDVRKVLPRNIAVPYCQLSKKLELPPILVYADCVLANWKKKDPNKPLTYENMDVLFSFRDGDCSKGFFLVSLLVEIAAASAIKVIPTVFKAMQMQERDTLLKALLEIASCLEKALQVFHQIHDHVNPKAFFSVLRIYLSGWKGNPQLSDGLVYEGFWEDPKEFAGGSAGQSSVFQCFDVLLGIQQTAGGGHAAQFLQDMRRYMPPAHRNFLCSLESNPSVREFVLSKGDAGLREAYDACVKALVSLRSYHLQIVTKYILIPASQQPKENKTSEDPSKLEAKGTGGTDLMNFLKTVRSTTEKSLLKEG
- Assay Text: Inhibition of human IDO1 incubated for 60 mins in presence of L-tryptophan by HPLC analysis

[
  {
    "Smiles Str": "COc1ccccc1C(=O)c1c[nH]c2ccc(Cl)cc12",
    "Measured On": "Indoleamine 2,3-dioxygenase 1 (Homo sapiens, UniProt P14902)",
    "IC50": "> 200 µM"
  },
  {
    "Smiles Str": "COc1cc(OC)cc(Sc2c[nH]c3c(Cl)cccc23)c1",
    "Measured On": "Indoleamine 2,3-dioxygenase 1 (Homo sapiens, UniProt P14902)",
    "IC50": "> 200 µM"
  },
  {
    "Smiles Str": "COc1cc(OC)cc(Sc2c[nH]c3ncccc23)c1",
    "Measured On": "Indoleamine 2,3-dioxygenase 1 (Homo sapiens, UniProt P14902)",
    "IC50": "> 200 µM"
  }
]
